test system: soybean; test: Phytotoxicity test for field crops (soil treatment test); format: in vivo; design: key: 0 (no harm); 9 (complete withered); conditions: 50 g ai/ha; Soybean (20 days after treatment)
Each entry below lists one item and its recorded Soil treatment phytotoxicity, Soybean value.
Outcome Measure: Soil treatment phytotoxicity, Soybean

Cn1nnc(CSCc2nc(C(F)(F)F)ccc2C(=O)N(c2nnnn2C)S(C)(=O)=O)n1 [Compound No. 2-110]    0
Cn1nc(COCc2nc(C(F)(F)F)ccc2C(=O)Nc2nnnn2C)nc1Cl [Compound No. 2-135]    0
Cn1nnc(COCc2nc(C(F)(F)C(F)(F)F)ccc2C(=O)Nc2nnnn2C)n1 [Compound No. 2-81]    0
Cn1nc(COCc2nc(C(F)(F)F)ccc2C(=O)Nc2nnnn2C)nc1Br [Compound No. 2-136]    0
Cn1nnc(COCc2nc(C(F)(F)F)ccc2C(=O)N(C(=O)c2ccccc2)c2nnnn2C)n1 [Compound No. 2-68]    0
Cn1ncnc1COc1nc(C(F)(F)F)ccc1C(=O)Nc1nnnn1C [Compound No. 1-45]    0
Cn1ncnc1COCc1nc(C(F)(F)F)ccc1C(=O)Nc1nnnn1C [Compound No. 1-102]    0
Cn1nc(COCc2nc(C(F)(F)F)ccc2C(=O)Nc2nnnn2C)nc1C#N [Compound No. 2-134]    0
Cn1nnc(COCc2nc(C(F)(F)F)ccc2C(=O)N(c2nnnn2C)S(C)(=O)=O)n1 [Compound No. 2-69]    0
CN(Cc1nnn(C)n1)c1nc(C(F)(F)F)ccc1C(=O)Nc1nnnn1C [Compound No. 2-26]    4
Cn1nnc(COCc2nc(C(F)(F)F)ccc2C(=O)Nc2nnnn2C)n1 [Compound No. 2-59]    5
Cn1nnc(COCc2nc(C(F)(F)F)ccc2C(=S)Nc2nnnn2C)n1 [Compound No. 2-106]    0
Cn1nnc(COCc2nc(C(F)(F)Cl)ccc2C(=O)Nc2nnnn2C)n1 [Compound No. 2-78]    0
Cn1nnnc1COc1nc(C(F)(F)F)ccc1C(=O)Nc1nnnn1C [Compound No. 1-1]    5
CON(Cc1nnn(C)n1)Cc1nc(C(F)(F)F)ccc1C(=O)Nc1nnnn1C [Compound No. 2-97]    0
CON(Cc1nnn(C)n1)c1nc(C(F)(F)F)ccc1C(=O)Nc1nnnn1C [Compound No. 2-30]    7

* * *

test system: crabgrass; assay: Herbicidal activity test against upland field weeds (foliar treatment test); type: in vivo; set-up: key: 0 (no control); 100 (complete control); conditions: 50 g ai/ha, scale 0-100
Outcome Measure: Foliar treatment herbicidal activity, Crabgrass

Cn1nnnc1NC(=O)c1ccc(C(F)(F)F)nc1COc1nnnn1C    0
Cn1nnc(C[S+]([O-])Cc2nc(C(F)F)ccc2C(=O)Nc2nnnn2C)n1 (centres unmarked)    98
CN(Cc1nnnn1C)c1nc(C(F)(F)F)ccc1C(=O)Nc1nnnn1C    100
Cn1cnc(COCc2nc(C(F)F)ccc2C(=O)Nc2nnnn2C)n1    60
C#CCn1nnnc1NC(=O)c1ccc(C(F)(F)F)nc1COCc1nc(C(F)(F)F)n(C)n1    20
Cn1nnc(CN(OCc2ccccc2)c2nc(C(F)(F)F)ccc2C(=O)Nc2nnnn2C)n1    0
Cn1nnc(C[S+]([O-])Cc2nc(C(F)(F)F)ccc2C(=O)Nc2nnnn2C)n1 (centres unmarked)    100
Cn1nnnc1NC(=O)c1ccc(C(F)(F)F)nc1COCc1nnnn1C(F)F    0

* * *

system: soybean; test: Phytotoxicity test for upland field crops (foliar treatment test); type: in vivo; conditions: 100 g ai/ha, Soybean (14 days after treatment)
Documented Foliar treatment phytotoxicity, Soybean across a set of compounds
Outcome Measure: Foliar treatment phytotoxicity, Soybean

CON(Cc1nnn(C)n1)c1nc(C(F)(F)F)ccc1C(=O)Nc1nnnn1C    6
Cn1nnc(COc2nc(C(F)(F)F)ccc2C(=O)Nc2nnnn2C)n1    6
CON(Cc1nnn(C)n1)Cc1nc(C(F)(F)F)ccc1C(=O)Nc1nnnn1C    9
CN(Cc1nnn(C)n1)c1nc(C(F)(F)F)ccc1C(=O)Nc1nnnn1C    9
Cn1nnc(COCc2nc(C(F)(F)F)ccc2C(=O)N(C(=O)c2ccccc2)c2nnnn2C)n1    7
Cn1nc(COCc2nc(C(F)(F)F)ccc2C(=O)Nc2nnnn2C)nc1Cl    7
Cn1nnc(COCc2nc(C(F)(F)F)ccc2C(=O)Nc2nnnn2C)n1    7
Cn1nnc(COCc2nc(C(F)(F)C(F)(F)F)ccc2C(=O)Nc2nnnn2C)n1    7
Cn1ncnc1COCc1nc(C(F)(F)F)ccc1C(=O)Nc1nnnn1C    9
CCOC(=O)OC(C)N(C(=O)c1ccc(C(F)(F)F)nc1COCc1nnn(C)n1)c1nnnn1C (centres unmarked)    0
COC(=O)OC(C)N(C(=O)c1ccc(C(F)(F)F)nc1COCc1nnn(C)n1)c1nnnn1C (centres unmarked)    0

* * *

We begin with a simple list: items and their reported pest or weed control at 50 g/ha.
tested on: black nightshade; assay: Herbicidal activity test against upland field weeds (soil treatment test); format: in vivo; conditions: Solanum nigrum, 50 g ai/ha, scale 0 (no control) to 100 (complete control)
Outcome Measure: pest or weed control at 50 g/ha (%)

CSc1nc(COCc2nc(C(F)(F)F)ccc2C(=O)Nc2nnnn2C)nn1C    98
Cn1nnnc1COCc1nc(C(F)(F)F)ccc1C(=O)Nc1nnnn1C    98
Cn1nnc(CSCc2nc(C(F)(F)F)ccc2C(=S)Nc2nnnn2C)n1    70
Cn1nnc(C[S+]([O-])Cc2nc(C(F)(F)F)ccc2C(=O)Nc2nnnn2C)n1 (centres unmarked)    98
Cn1nnc(CS(=O)(=O)Cc2nc(C(F)(F)F)ccc2C(=O)Nc2nnnn2C)n1    60
Cn1nc(COCc2nc(C(F)(F)F)ccc2C(=O)Nc2nnnn2C)nc1Cl    60
Cn1nnc(CSCc2nc(C(F)F)ccc2C(=O)N(C(=O)c2ccccc2)c2nnnn2C)n1    90
CON(Cc1nc(C(F)(F)F)ccc1C(=O)Nc1nnnn1C)Cc1ncnn1C    98
Cn1nnc(CN(OCc2ccccc2)c2nc(C(F)(F)F)ccc2C(=O)Nc2nnnn2C)n1    20
Cn1nnc(CSCc2nc(C(F)F)ccc2C(=O)Nc2nnnn2C)n1    30
Cn1cnc(COCc2nc(C(F)(F)Cl)ccc2C(=O)Nc2nnnn2C)n1    98
CCc1cc(C(=O)Nc2nnnn2C)c(OCc2nnnn2C)nc1C(F)(F)F    98
Cn1nnc(COc2nc(C(F)(F)F)ccc2C(=O)Nc2nnnn2C)n1    90
C=Cc1cc(C(=O)Nc2nnnn2C)c(OCc2nnnn2C)nc1C(F)(F)F    80

* * *

The entries below come with measured Soil treatment phytotoxicity, Cotton values attached.
Test system: cotton
Experiment: Phytotoxicity test for field crops (soil treatment test)
Type: in vivo
Parameters: key: 0 (no harm); 9 (complete withered)
Details: 50 g ai/ha; Cotton (10 days after treatment)
Protocol: Experimental Example 4: Phytotoxicity Test for Field Crops (Soil Treatment Test) Soil treatment was performed for sown crops and weeds in a square plastic pot having a surface area of 50 cm^2 filled with sterilized horticultural soil (pH 6.1, organic material 1.0%, clay 21%, silt 17%, sand 52%). As a fertilizer per pot, 0.5 g of horticultural mixed fertilizer (N:P:K=17:21:17) was treated by mixing with soil. Five kinds of crops such as rice, wheat, corn, soybean, and cotton were sown in each pot. […]
Outcome Measure: Soil treatment phytotoxicity, Cotton

Cn1nc(COCc2nc(C(F)(F)F)ccc2C(=O)Nc2nnnn2C)nc1Br [Compound No. 2-136]    0
Cn1ncnc1COc1nc(C(F)(F)F)ccc1C(=O)Nc1nnnn1C [Compound No. 1-45]    1
Cn1nnc(COCc2nc(C(F)(F)Cl)ccc2C(=O)Nc2nnnn2C)n1 [Compound No. 2-78]    2
Cn1nnc(COc2nc(C(F)(F)F)ccc2C(=O)Nc2nnnn2C)n1 [Compound No. 2-1]    1
CON(Cc1nnn(C)n1)c1nc(C(F)(F)F)ccc1C(=O)Nc1nnnn1C [Compound No. 2-30]    2
Cn1nc(COCc2nc(C(F)(F)F)ccc2C(=O)Nc2nnnn2C)nc1Cl [Compound No. 2-135]    1
Cn1ncnc1COCc1nc(C(F)(F)F)ccc1C(=O)Nc1nnnn1C [Compound No. 1-102]    0
Cn1nnnc1NC(=O)c1ccc(C(F)(F)F)nc1OCc1nnnn1C(F)F [Compound No. 1-26]    1

* * *

Recorded measurements of Soil treatment phytotoxicity, Rice, one per entry
tested on: rice; assay: Phytotoxicity test for field crops (soil treatment test); format: in vivo; conditions: 100 g ai/ha; Rice (10 days after treatment)
Outcome Measure: Soil treatment phytotoxicity, Rice

Cn1nnc(COCc2nc(C(F)(F)F)ccc2C(=O)N(C(=O)c2ccccc2)c2nnnn2C)n1 [Compound No. 2-68]    8
Cn1nnnc1COc1nc(C(F)(F)F)ccc1C(=S)Nc1nnnn1C [Compound No. 1-43]    7
COc1nc(COCc2nc(C(F)(F)F)ccc2C(=O)Nc2nnnn2C)nn1C [Compound No. 2-129]    5
Cn1nc(COCc2nc(C(F)(F)F)ccc2C(=O)Nc2nnnn2C)nc1C#N [Compound No. 2-134]    5

The values you see were collected from patent US12495798B2.
